Attribution: patent US10709709B2

Quick list: pIC50 per entry.
EXPERIMENTAL TARGET: PRMT5/MEP50 protein complex (Homo sapiens (Human), UniProt O14744)
Sequence (O14744 other isoform, or with tags, fused parts or gaps): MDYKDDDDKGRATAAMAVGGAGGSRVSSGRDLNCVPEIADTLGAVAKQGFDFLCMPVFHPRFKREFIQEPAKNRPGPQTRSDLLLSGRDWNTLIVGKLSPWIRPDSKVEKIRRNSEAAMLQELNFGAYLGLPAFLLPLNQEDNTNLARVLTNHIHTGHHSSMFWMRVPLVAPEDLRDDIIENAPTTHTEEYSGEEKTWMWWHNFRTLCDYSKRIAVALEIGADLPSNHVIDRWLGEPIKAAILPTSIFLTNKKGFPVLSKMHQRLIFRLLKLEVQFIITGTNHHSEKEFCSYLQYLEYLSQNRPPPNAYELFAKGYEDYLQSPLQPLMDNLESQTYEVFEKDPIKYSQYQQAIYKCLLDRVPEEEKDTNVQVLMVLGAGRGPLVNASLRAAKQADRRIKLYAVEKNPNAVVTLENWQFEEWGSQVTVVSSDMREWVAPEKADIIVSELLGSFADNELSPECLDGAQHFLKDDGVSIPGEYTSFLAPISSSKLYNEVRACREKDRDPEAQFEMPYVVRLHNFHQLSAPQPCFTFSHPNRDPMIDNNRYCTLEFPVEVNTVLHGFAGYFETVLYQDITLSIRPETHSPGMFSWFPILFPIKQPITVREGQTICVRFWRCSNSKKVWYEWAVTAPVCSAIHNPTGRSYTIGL
Sequence (Q9BQA1 whole entry partner): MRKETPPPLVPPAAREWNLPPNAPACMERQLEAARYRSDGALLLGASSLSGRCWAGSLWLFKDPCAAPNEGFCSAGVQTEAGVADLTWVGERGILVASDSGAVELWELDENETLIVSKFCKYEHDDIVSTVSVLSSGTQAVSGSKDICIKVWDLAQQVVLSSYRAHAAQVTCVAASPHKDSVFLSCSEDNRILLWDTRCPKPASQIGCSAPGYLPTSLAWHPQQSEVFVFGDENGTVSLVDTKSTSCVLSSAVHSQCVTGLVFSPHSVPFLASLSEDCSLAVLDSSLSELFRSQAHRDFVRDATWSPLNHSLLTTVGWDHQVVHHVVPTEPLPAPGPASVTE
PROTOCOL DESCRIPTION: PRMT5 biochemical assay (3H-SAM methylation of H4(1-21) peptide, filter plate scintillation)
CONDITION LABEL: 10 nM PRMT5/MEP50 complex, 200 nM H4(1-21) peptide, 1 uM SAM, 25 minute incubation at room temperature
// pIC50: -log10(molar conc.)

COMPOUND	PROPERTY	RECORDED VALUE
Cc1cc2cccc(O[C@H]3C[C@@H](n4ccc5c(C)ncnc54)[C@H](O)[C@@H]3O)c2cn1 [Example 169]	pIC50	7.43
Cc1ncnc2c1ccn2[C@@H]1C[C@H](Oc2ccc(F)cc2[C@H](C)N)[C@@H](O)[C@H]1O [Example 138]	pIC50	8.70
Cc1ncnc2c1ccn2[C@@H]1C[C@H](Oc2cc(F)cc3c2CNCCO3)[C@@H](O)[C@H]1O [Example 203]	pIC50	9.00
Cc1ncnc2c1ccn2[C@@H]1C[C@H](Oc2cc(C(C)(C)O)cc3c2CNCC3)[C@@H](O)[C@H]1O [Example 97]	pIC50	7.19
CN1CCc2cccc(O[C@H]3C[C@@H](n4cc(F)c5c(N)ncnc54)[C@H](O)[C@@H]3O)c2C1 [Example 114]	pIC50	8.40

For this compound ( Cc1ncnc2c1ccn2[C@@H]1C[C@H](Oc2cccc3c2CN(C)C3)[C@@H](O)[C@H]1O [Example 82] ), measured pIC50 is 6.00

Short answer for Cc1ncnc2c1ccn2[C@@H]1C[C@H](Oc2cccc(C(F)(F)F)c2CN)[C@@H](O)[C@H]1O [Example 144] : pIC50 was 7.11
